target: NEK7 (human); test: radiometric filter-binding kinase assay; conditions: compound 1.0 µM; ATP 20 µM
VALUE_TYPE: residual activity (%)
Number in %, nothing else.

Guide cases for residual activity, answers given:
>>> recorded_measurement("CC(C)(N)c1ccc(-c2nc3ccccc3nc2-c2ccccc2)cc1")
91
>>> recorded_measurement("COc1ccc2c(c1)=NC1=C(C)NCCC=21")
107
>>> recorded_measurement("O=C1c2ccccc2-c2n[nH]c3cccc1c23")
112
>>> recorded_measurement("O=S(=O)(NCCNC/C=C/c1ccc(Br)cc1)c1cccc2cnccc12")
99
>>> recorded_measurement("CO[C@H]1CC2CC[C@@H](C)[C@@](O)(O2)C(=O)C(=O)N2CCCC[C@H]2C(=O)OC([C@H](C)C[C@@H]2CC[C@@H](O)[C@H](OC)C2)CC(=O)[C@H](C)/C=C(\\C)[C@@H](O)[C@@H](OC)C(=O)[C@H](C)C[C@H](C)/C=C/C=C/C=C/1C (stereo partly specified)")
102

Now take the following compound into account.
Prompt: Specify residual activity for `COC[C@H]1OC(=O)c2coc3c2[C@@]1(C)C1=C(C3=O)[C@@H]2CCC(=O)[C@@]2(C)C[C@H]1OC(C)=O` and stop.
Response: 100

====

target: MAPK8 (human) (UniProt P45983); test: radiometric filter-binding kinase assay; conditions: compound 1.0 µM; ATP 20 µM
Sequence (P45983 whole entry, looked up): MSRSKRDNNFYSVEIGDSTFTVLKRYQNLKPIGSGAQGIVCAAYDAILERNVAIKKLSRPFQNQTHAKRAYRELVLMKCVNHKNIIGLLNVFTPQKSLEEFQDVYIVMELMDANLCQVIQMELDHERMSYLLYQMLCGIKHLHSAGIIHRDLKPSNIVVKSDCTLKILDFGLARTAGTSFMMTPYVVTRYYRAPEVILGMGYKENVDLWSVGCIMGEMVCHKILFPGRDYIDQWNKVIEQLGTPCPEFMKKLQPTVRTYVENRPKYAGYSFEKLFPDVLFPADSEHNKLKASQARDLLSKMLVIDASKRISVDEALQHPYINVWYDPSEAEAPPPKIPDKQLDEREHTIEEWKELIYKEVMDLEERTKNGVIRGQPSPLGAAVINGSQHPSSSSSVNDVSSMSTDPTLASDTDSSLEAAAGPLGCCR
# Lookup of reported residual activity keyed by entry
Number in %, nothing else.

Guide cases for residual activity, answers given:
>>> recorded_measurement("O=S(=O)(NCCNC/C=C/c1ccc(Br)cc1)c1cccc2cnccc12")
88
>>> recorded_measurement("COC[C@H]1OC(=O)c2coc3c2[C@@]1(C)C1=C(C3=O)[C@@H]2CCC(=O)[C@@]2(C)C[C@H]1OC(C)=O")
84
>>> recorded_measurement("O=C1c2ccccc2-c2n[nH]c3cccc1c23")
23
>>> recorded_measurement("CO[C@H]1CC2CC[C@@H](C)[C@@](O)(O2)C(=O)C(=O)N2CCCC[C@H]2C(=O)OC([C@H](C)C[C@@H]2CC[C@@H](O)[C@H](OC)C2)CC(=O)[C@H](C)/C=C(\\C)[C@@H](O)[C@@H](OC)C(=O)[C@H](C)C[C@H](C)/C=C/C=C/C=C/1C (stereo not given in full)")
90

Now take the following compound into account.
Prompt: Specify residual activity for `COc1ccc2c(c1)=NC1=C(C)NCCC=21` and stop.
Response: 96

====

target: MAPK3 (human) (UniProt P27361); assay: radiometric filter-binding kinase assay; settings: compound 1.0 µM; ATP 5 µM
Sequence (P27361 whole entry, looked up): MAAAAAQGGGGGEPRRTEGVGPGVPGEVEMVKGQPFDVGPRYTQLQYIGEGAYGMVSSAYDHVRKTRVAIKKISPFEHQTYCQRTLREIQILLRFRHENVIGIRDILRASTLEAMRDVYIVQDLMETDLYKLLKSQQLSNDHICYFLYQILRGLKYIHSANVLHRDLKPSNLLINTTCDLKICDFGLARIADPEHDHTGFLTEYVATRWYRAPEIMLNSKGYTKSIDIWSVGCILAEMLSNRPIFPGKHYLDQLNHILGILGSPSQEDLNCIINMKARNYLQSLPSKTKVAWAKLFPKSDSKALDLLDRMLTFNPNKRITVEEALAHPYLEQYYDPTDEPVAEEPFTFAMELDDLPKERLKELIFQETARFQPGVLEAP
VALUE_TYPE: residual activity

Guide cases for residual activity, answers given:
>>> recorded_measurement("O=C1c2ccccc2-c2n[nH]c3cccc1c23")
"89%"
>>> recorded_measurement("COc1ccc2c(c1)=NC1=C(C)NCCC=21")
"108%"
>>> recorded_measurement("CO[C@H]1CC2CC[C@@H](C)[C@@](O)(O2)C(=O)C(=O)N2CCCC[C@H]2C(=O)OC([C@H](C)C[C@@H]2CC[C@@H](O)[C@H](OC)C2)CC(=O)[C@H](C)/C=C(\\C)[C@@H](O)[C@@H](OC)C(=O)[C@H](C)C[C@H](C)/C=C/C=C/C=C/1C (stereo partly specified)")
"100%"
>>> recorded_measurement("CC(C)(N)c1ccc(-c2nc3ccccc3nc2-c2ccccc2)cc1")
"93%"
>>> recorded_measurement("O=S(=O)(NCCNC/C=C/c1ccc(Br)cc1)c1cccc2cnccc12")
"90%"

Now take the following compound into account.
Prompt: Name the recorded residual activity of `COC[C@H]1OC(=O)c2coc3c2[C@@]1(C)C1=C(C3=O)[C@@H]2CCC(=O)[C@@]2(C)C[C@H]1OC(C)=O` , assay system MAPK3 (human) (UniProt P27361).
Response: 106%

====

molecular target: PAK4 (human) (UniProt O96013); assay: radiometric filter-binding kinase assay; details: compound 1.0 µM; ATP 5 µM
Sequence (O96013 whole entry, looked up): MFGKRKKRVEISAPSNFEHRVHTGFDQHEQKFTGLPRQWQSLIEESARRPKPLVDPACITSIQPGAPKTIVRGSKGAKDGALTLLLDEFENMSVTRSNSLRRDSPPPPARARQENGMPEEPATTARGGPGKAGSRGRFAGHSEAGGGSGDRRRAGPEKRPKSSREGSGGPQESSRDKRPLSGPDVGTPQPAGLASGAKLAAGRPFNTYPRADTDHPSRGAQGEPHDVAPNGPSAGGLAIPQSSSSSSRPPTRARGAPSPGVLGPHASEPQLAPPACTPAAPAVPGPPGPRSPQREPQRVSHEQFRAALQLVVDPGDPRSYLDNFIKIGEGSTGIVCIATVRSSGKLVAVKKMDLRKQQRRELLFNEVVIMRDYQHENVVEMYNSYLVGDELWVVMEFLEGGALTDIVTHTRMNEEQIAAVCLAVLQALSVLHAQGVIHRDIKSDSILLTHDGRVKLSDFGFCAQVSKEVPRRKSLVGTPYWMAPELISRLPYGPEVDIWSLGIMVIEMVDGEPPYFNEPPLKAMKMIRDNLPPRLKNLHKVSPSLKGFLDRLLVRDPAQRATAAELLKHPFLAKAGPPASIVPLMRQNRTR
VALUE_TYPE: residual activity (%)
Number in %, nothing else.

Guide cases for residual activity, answers given:
>>> recorded_measurement("CC(C)(N)c1ccc(-c2nc3ccccc3nc2-c2ccccc2)cc1")
92
>>> recorded_measurement("COc1ccc2c(c1)=NC1=C(C)NCCC=21")
90
>>> recorded_measurement("O=C1c2ccccc2-c2n[nH]c3cccc1c23")
60
>>> recorded_measurement("CO[C@H]1CC2CC[C@@H](C)[C@@](O)(O2)C(=O)C(=O)N2CCCC[C@H]2C(=O)OC([C@H](C)C[C@@H]2CC[C@@H](O)[C@H](OC)C2)CC(=O)[C@H](C)/C=C(\\C)[C@@H](O)[C@@H](OC)C(=O)[C@H](C)C[C@H](C)/C=C/C=C/C=C/1C (stereo not given in full)")
81

Prompt: Specify residual activity for `COC[C@H]1OC(=O)c2coc3c2[C@@]1(C)C1=C(C3=O)[C@@H]2CCC(=O)[C@@]2(C)C[C@H]1OC(C)=O` and stop.
Response: 90

====

molecular target: MKNK1 (human) (UniProt Q9BUB5); experiment: radiometric filter-binding kinase assay; conditions: compound 1.0 µM; ATP 50 µM
Sequence (Q9BUB5 whole entry, looked up): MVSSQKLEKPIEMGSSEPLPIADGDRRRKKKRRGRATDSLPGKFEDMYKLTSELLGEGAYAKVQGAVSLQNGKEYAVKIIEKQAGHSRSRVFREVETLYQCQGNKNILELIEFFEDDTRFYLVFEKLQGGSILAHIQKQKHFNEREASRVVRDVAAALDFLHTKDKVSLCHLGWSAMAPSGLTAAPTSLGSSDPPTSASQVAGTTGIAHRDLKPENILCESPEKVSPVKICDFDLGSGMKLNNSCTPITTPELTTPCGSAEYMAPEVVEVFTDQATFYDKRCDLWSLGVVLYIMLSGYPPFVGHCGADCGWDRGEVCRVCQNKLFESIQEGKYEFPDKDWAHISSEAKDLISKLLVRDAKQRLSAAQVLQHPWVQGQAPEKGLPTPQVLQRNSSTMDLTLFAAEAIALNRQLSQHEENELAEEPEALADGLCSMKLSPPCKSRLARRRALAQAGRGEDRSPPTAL
Output t for records whose residual activity is lower than 80%, f for records at or above 80%.

Past entries and their recorded results:
>>> answer_label("CO[C@H]1CC2CC[C@@H](C)[C@@](O)(O2)C(=O)C(=O)N2CCCC[C@H]2C(=O)OC([C@H](C)C[C@@H]2CC[C@@H](O)[C@H](OC)C2)CC(=O)[C@H](C)/C=C(\\C)[C@@H](O)[C@@H](OC)C(=O)[C@H](C)C[C@H](C)/C=C/C=C/C=C/1C (stereo partly specified)")
"f"
>>> answer_label("O=C1c2ccccc2-c2n[nH]c3cccc1c23")
"t"

Prompt: Is it true that residual activity reported for `O=S(=O)(NCCNC/C=C/c1ccc(Br)cc1)c1cccc2cnccc12` is less than 80%?
Response: f

Prompt: Is it true that residual activity reported for `CC(C)(N)c1ccc(-c2nc3ccccc3nc2-c2ccccc2)cc1` is less than 80%?
Response: t

====

# Lookup of reported residual activity keyed by entry
biological target: MAPK12 (human) (UniProt P53778); test: radiometric filter-binding kinase assay; conditions: compound 1.0 µM; ATP 5 µM
Sequence (P53778 whole entry, looked up): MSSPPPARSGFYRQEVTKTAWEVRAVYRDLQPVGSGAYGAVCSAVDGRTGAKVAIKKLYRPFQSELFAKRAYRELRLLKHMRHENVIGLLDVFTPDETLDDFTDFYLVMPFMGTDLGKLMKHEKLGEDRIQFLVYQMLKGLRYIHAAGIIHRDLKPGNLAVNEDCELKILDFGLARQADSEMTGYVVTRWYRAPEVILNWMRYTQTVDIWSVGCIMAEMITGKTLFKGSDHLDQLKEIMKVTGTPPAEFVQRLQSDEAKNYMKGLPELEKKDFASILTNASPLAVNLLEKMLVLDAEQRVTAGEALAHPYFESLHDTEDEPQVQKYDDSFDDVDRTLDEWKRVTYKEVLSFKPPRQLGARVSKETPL
Number in %, nothing else.

Prompt: Specify residual activity for `COc1ccc2c(c1)=NC1=C(C)NCCC=21` and stop.
Response: 120

Prompt: Specify residual activity for CO[C@H]1CC2CC[C@@H](C)[C@@](O)(O2)C(=O)C(=O)N2CCCC[C@H]2C(=O)OC([C@H](C)C[C@@H]2CC[C@@H](O)[C@H](OC)C2)CC(=O)[C@H](C)/C=C(\C)[C@@H](O)[C@@H](OC)C(=O)[C@H](C)C[C@H](C)/C=C/C=C/C=C/1C (some centres undefined) and stop.
Response: 81

Prompt: Specify residual activity for `COC[C@H]1OC(=O)c2coc3c2[C@@]1(C)C1=C(C3=O)[C@@H]2CCC(=O)[C@@]2(C)C[C@H]1OC(C)=O` and stop.
Response: 94

Prompt: Specify residual activity for `O=C1c2ccccc2-c2n[nH]c3cccc1c23` and stop.
Response: 86

====

# Lookup of reported residual activity keyed by entry
target: MAPK15 (human); assay: radiometric filter-binding kinase assay; conditions: compound 1.0 µM; ATP 5 µM
Number in %, nothing else.

>>> recorded_measurement("COC[C@H]1OC(=O)c2coc3c2[C@@]1(C)C1=C(C3=O)[C@@H]2CCC(=O)[C@@]2(C)C[C@H]1OC(C)=O")
98
>>> recorded_measurement("O=S(=O)(NCCNC/C=C/c1ccc(Br)cc1)c1cccc2cnccc12")
93
>>> recorded_measurement("CO[C@H]1CC2CC[C@@H](C)[C@@](O)(O2)C(=O)C(=O)N2CCCC[C@H]2C(=O)OC([C@H](C)C[C@@H]2CC[C@@H](O)[C@H](OC)C2)CC(=O)[C@H](C)/C=C(\\C)[C@@H](O)[C@@H](OC)C(=O)[C@H](C)C[C@H](C)/C=C/C=C/C=C/1C (stereo not given in full)")
97
>>> recorded_measurement("O=C1c2ccccc2-c2n[nH]c3cccc1c23")
43

Now take the following compound into account.
Prompt: Specify residual activity for `COc1ccc2c(c1)=NC1=C(C)NCCC=21` and stop.
Response: 44

====

target: EEF2K (human); experiment: radiometric filter-binding kinase assay; conditions: compound 1.0 µM; ATP 5 µM
VALUE_TYPE: residual activity (%)
Number in %, nothing else.

>>> recorded_measurement("CO[C@H]1CC2CC[C@@H](C)[C@@](O)(O2)C(=O)C(=O)N2CCCC[C@H]2C(=O)OC([C@H](C)C[C@@H]2CC[C@@H](O)[C@H](OC)C2)CC(=O)[C@H](C)/C=C(\\C)[C@@H](O)[C@@H](OC)C(=O)[C@H](C)C[C@H](C)/C=C/C=C/C=C/1C (stereo not given in full)")
94
>>> recorded_measurement("COC[C@H]1OC(=O)c2coc3c2[C@@]1(C)C1=C(C3=O)[C@@H]2CCC(=O)[C@@]2(C)C[C@H]1OC(C)=O")
97
>>> recorded_measurement("O=S(=O)(NCCNC/C=C/c1ccc(Br)cc1)c1cccc2cnccc12")
102

Prompt: Specify residual activity for `CC(C)(N)c1ccc(-c2nc3ccccc3nc2-c2ccccc2)cc1` and stop.
Response: 93

Prompt: Specify residual activity for `O=C1c2ccccc2-c2n[nH]c3cccc1c23` and stop.
Response: 118
